Measured normalized growth accompanies every entry in the list below.
assay-procedure: chemical genetic growth profiling, strain panel (AID 1159580);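 also: tested at 20 µM; growth read once vehicle control cultures reached saturation at 30 °C; 1 = growth at the plate median or of vehicle wells; lower values mean less growth of the strain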
experimental-parameters: S. cerevisiae deletion strains, growth OD, locus YDL005C, strain med2, stronger effect = lower value
In all, about 5,500 compounds went through this assay and about 2,000 (36%) were called active. Not shown: some 18% with an inconclusive outcome. The list shows a part of the results.
The answer should be a number; do not append a unit.

Answered cases to consult:
| compound | measurement-label | data-value |
| --- | --- | --- |
| CCOC(=O)C1=C[C@]2(CC)CCCN3CCc4c(n1c1ccccc41)[C@@H]32 | normalized growth | 1.02 |
| CC(=O)OCC(=O)[C@@]12OC(C)(C)O[C@@H]1CC1C3C[C@H](F)C4=CC(=O)C=C[C@]4(C)[C@@]3(F)[C@@H](O)C[C@@]12C (stereo partly specified) | normalized growth | 1.03 |
| O=C(NC(Cc1cc(=O)[nH]c2ccccc12)C(=O)O)c1ccc(Cl)cc1 (stereo unspecified) | normalized growth | 1 |

I am curious: what normalized growth value has been reported for `CC1=C(/C=C/C(C)=C/C=C/C(C)=C/C=C/C=C(C)/C=C/C=C(C)/C=C/C2=C(C)CCCC2(C)C)C(C)(C)CCC1` ?
0.998

Same read-out for `CCOC(=O)c1ccc(N)cc1` ?
1.01

Same read-out for C#C[C@]1(O)CCC2C3CCc4cc(O)ccc4C3CC[C@@]21C (stereo partly specified) ?
1.04

Same read-out for `NC(=O)N/N=C\c1ccc([N+](=O)[O-])o1` ?
0.989

Same read-out for Nc1c(Br)cc(Br)cc1CNC1CCC(O)CC1 (stereo unspecified) ?
1.02

Same read-out for `COc1ccc(-c2cc(C(F)F)nn2-c2ccc(S(N)(=O)=O)cc2)cc1F` ?
1

Same read-out for `CC[C@]12CCCN3CCc4c(n(c5ccccc45)[C@](O)(C(=O)OC)C1)[C@@H]32` ?
0.96

Same read-out for `NCCCCN=C(N)N` ?
1.04

Same read-out for O=C(NC(=O)c1c(F)cccc1F)Nc1cc(Cl)c(OC(F)(F)C(F)C(F)(F)F)cc1Cl (stereo unspecified) ?
0.984

Same read-out for Nc1nc2c(c(=O)[nH]1)N(C=O)C(CNc1ccc(C(=O)N[C@@H](CCC(=O)O)C(=O)O)cc1)CN2 (stereo partly specified) ?
0.963

Same read-out for `CC1=C(/C=C/C(C)=C/C=C/C(C)=C/C(=O)O)C(C)(C)CCC1` ?
0.998

Same read-out for O=C(O)CCCCC1SCC2NC(=O)NC21 (stereo unspecified) ?
0.98

Same read-out for `CS(=O)(=O)OCCCCOS(C)(=O)=O` ?
1.01

Same read-out for CN1CCc2cccc3c2C1Cc1ccc(O)c(O)c1-3 (stereo unspecified) ?
1.02

Same read-out for `COc1cc(/C=C/C(=O)O)ccc1O` ?
1.02

Same read-out for CC[C@@]1(C2O[C@@H](C3O[C@@](O)(CC)[C@H](C)C[C@@H]3C)C[C@@H]2C)CC[C@H]([C@]2(C)CCC3(C[C@H](O)[C@@H](C)[C@@H]([C@H](C)[C@@H](OC)[C@H](C)C(=O)O)O3)O2)O1 (stereo partly specified) ?
1.06

Same read-out for `CC1=C(/C=C/C(C)=C/C=C/C(C)=C\C(=O)O)C(C)(C)CCC1` ?
0.979

Same read-out for CC[C@@H](C(=O)[C@@H](C)[C@@H](O)[C@H](C)[C@@H]1O[C@@H]([C@@H](CC)C(=O)O)CC[C@@H]1C)[C@H]1OC2(C=C[C@@H](O)[C@]3(CC[C@@](C)([C@H]4CC[C@](O)(CC)[C@H](C)O4)O3)O2)[C@H](C)C[C@@H]1C (stereo partly specified) ?
0.97

Same read-out for COc1cc2c(cc1O)CC1c3c(cc(O)c(OC)c3-2)CCN1C (stereo unspecified) ?
1.03

Same read-out for NC(=O)c1cc[n+](CC2=C(C(=O)O)N3C(=O)C(NC(=O)C(c4ccccc4)S(=O)(=O)[O-])C3SC2)cc1 (stereo unspecified) ?
0.998
